# System Under Test: linear di-SUMO2 (2×SUMO2-ΔN11), P61956
# Sequence (P61956 other isoform, or with tags, fused parts or gaps mutant): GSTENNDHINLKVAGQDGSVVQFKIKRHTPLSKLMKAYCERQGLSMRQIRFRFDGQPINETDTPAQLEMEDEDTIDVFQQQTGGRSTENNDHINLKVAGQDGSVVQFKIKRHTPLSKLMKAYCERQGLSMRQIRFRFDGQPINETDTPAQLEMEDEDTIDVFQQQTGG
# Assay Notes: ITC (calorimetric titration)
# Assay Setup: chain shown with the change
Below, each entry is listed with its recorded Kd.
Express the result in µM but write the number alone.

Some binders with recorded Kd:
Any idea what Kd was measured for RNF4 1–125 (RNF4-SIM domain, wt), P78317 SIM3/4mut (protein) MSTRKRRGGAINSRQAQKRTREATSTPEISLEAEPIELVETAGDEIVDLTCESLEPVVAAAAHNDSAAAADERRRPRRNARRLPQDHADSCVVSSDDEELSRDRDVYVTTHTPRNARDEGATGLR ?
69

Any idea what Kd was measured for RNF4 1–125 (RNF4-SIM domain, wt), P78317 SIM2/3mut (protein) MSTRKRRGGAINSRQAQKRTREATSTPEISLEAEPIELVETAGDEIAAAACESLEPVVAAAAHNDSVVIVDERRRPRRNARRLPQDHADSCVVSSDDEELSRDRDVYVTTHTPRNARDEGATGLR ?
110

Any idea what Kd was measured for RNF4 1–125 (RNF4-SIM domain, wt), P78317 SIM1/3mut (protein) MSTRKRRGGAINSRQAQKRTREATSTPEISLEAEPAAAAETAGDEIVDLTCESLEPVVAAAAHNDSVVIVDERRRPRRNARRLPQDHADSCVVSSDDEELSRDRDVYVTTHTPRNARDEGATGLR ?
52

Any idea what Kd was measured for RNF4 1–125 (RNF4-SIM domain, wt), P78317 SIM2mut (protein) MSTRKRRGGAINSRQAQKRTREATSTPEISLEAEPIELVETAGDEIAAAACESLEPVVVDLTHNDSVVIVDERRRPRRNARRLPQDHADSCVVSSDDEELSRDRDVYVTTHTPRNARDEGATGLR ?
118

Consider now this further binder.
Any idea what Kd was measured for RNF4 1–125 (RNF4-SIM domain, wt), P78317 SIM2/4mut (protein) MSTRKRRGGAINSRQAQKRTREATSTPEISLEAEPIELVETAGDEIAAAACESLEPVVVDLTHNDSAAAADERRRPRRNARRLPQDHADSCVVSSDDEELSRDRDVYVTTHTPRNARDEGATGLR ?
69

The measured values listed here are drawn from paper PMC3901395.
